target: phosphor-EGFR in H1975(L585R/T790M) mutant EGFR expressing cells (Homo sapiens, UniProt P00533, L858R/T790M); experiment: H1975 pEGFR MSD cellular assay; conditions: NCI-H1975 cells, serum starved, 1 hour compound incubation, pEGFR Tyr1068 MSD; read-out: HI975 pEGFR EC50
Sequence (P00533 25-1210 T790M/L858R): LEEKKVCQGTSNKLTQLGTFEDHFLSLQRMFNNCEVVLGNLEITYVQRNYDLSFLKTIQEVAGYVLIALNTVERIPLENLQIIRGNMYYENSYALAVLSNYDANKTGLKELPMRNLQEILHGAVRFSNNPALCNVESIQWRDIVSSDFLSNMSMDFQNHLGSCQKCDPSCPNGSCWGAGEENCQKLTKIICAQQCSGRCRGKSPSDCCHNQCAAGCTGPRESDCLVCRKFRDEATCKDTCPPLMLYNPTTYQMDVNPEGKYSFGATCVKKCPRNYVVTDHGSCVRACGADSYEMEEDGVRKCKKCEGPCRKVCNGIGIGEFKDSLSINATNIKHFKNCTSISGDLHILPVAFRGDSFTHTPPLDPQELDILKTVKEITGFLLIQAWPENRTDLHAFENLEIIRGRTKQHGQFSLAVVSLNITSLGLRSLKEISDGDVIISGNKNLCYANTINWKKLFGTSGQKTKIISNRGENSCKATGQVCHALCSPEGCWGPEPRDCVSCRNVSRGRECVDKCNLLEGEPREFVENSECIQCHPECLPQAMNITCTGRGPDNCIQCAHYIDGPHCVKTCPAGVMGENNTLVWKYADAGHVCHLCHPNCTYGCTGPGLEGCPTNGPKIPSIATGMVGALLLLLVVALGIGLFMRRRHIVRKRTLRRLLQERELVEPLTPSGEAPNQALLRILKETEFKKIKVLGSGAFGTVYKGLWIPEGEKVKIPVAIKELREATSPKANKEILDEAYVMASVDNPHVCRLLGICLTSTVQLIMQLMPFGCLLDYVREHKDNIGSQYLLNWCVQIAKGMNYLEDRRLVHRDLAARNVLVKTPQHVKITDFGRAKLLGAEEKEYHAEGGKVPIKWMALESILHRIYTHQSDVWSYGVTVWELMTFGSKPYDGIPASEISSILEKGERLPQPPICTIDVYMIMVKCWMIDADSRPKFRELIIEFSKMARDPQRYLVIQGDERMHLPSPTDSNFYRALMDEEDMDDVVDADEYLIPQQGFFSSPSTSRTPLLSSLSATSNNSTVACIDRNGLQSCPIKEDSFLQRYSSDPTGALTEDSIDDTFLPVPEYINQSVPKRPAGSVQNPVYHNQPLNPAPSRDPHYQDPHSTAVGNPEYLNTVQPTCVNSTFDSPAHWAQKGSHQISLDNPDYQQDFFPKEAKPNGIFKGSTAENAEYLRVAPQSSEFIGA
value_kind: EC50 (nM)
Response body: numeric value in nM, unit text excluded.

-- ask Using known records, supply EC50 for CCC(C)n1nc(N2CC[C@H](C(N)=O)C2)c2cnc(Nc3ccnc(N4CCC(C)(O)CC4)n3)cc21 (stereo partly shown)
-- reply 941

-- ask Return value of EC50 for input CC(C)n1nc(N2CC(C(=O)N3CC4CCC(C3)O4)C2)c2cnc(Nc3ccnc(-c4cnn(S(=O)(=O)C5CC5)c4)n3)cc21 , no commentary.
-- reply 25.5

-- ask State, in one line, measured EC50 of CC(C)n1nc(N2CC[C@H](O)C2)c2cnc(Nc3ccnc(-c4cnn(S(=O)(=O)C5CC5)c4)n3)cc21
-- reply 4.4

-- ask Identify the reported EC50 for the following entry. CC[C@H](C)n1nc(N2CC[C@H](O)C2)c2cnc(Nc3ccnc(N4CC[C@](C)(O)[C@H](F)C4)n3)cc21 (relative stereo)
-- reply 83

-- ask State its EC50: CCC(C)n1nc(N2CCNC2=O)c2cnc(Nc3ccnc(-c4cnn(S(=O)(=O)C5CC5)c4)n3)cc21 (stereo not shown)
-- reply 38.3

-- ask Please give measured EC50 of the following entry: CC(C)n1nc(N2CC3(COC3)C2)c2cnc(Nc3ccnc(N4CC[C@](C)(O)[C@H](F)C4)n3)cc21 (racemic)
-- reply 223

-- ask Identify EC50 associated with the compound CC(C)n1nc(N2CCC(O)C2)c2cnc(Nc3ccnc(-c4cnn(S(=O)(=O)C5CC5)c4)n3)cc21 (stereo not shown)
-- reply 7.5

-- ask Give EC50 for the following compound: CC(C)n1nc(N2CC(C(C)(C)O)C2)c2cnc(Nc3ccnc(-c4cnn(S(=O)(=O)C5CC5)c4)n3)cc21
-- reply 51.9

-- ask Determine from records and report EC50 for CC[C@@H](C)n1nc(N2CC3(COC3)C2)c2cnc(Nc3ccnc(N4CC[C@](C)(O)[C@H](F)C4)n3)cc21 (single isomer, unassigned)
-- reply 257

-- ask Retrieve EC50 measured for COCCNC(=O)C1CN(c2nn(C(C)C)c3cc(Nc4ccnc(-c5cnn(S(=O)(=O)C6CC6)c5)n4)ncc23)C1 and print it.
-- reply 51.3

-- ask Name the recorded EC50 of the compound listed here: CC(C)n1nc(N2CC3(COC3)C2)c2cnc(Nc3ccnc(N4CCC(O)C(F)C4)n3)cc21 (racemic)
-- reply 36.1

-- ask Give the measured EC50 for CC(n1nc(N2CC3(COC3)C2)c2cnc(Nc3ccnc(-c4cnn(S(=O)(=O)C5CC5)c4)n3)cc21)C(F)(F)F (stereo not shown)
-- reply 154

-- ask Give EC50 for the following compound: CCC(C)n1nc(N2CC[C@@H](O)C2=O)c2cnc(Nc3ccnc(-c4cnn(S(=O)(=O)C5CC5)c4)n3)cc21 (stereo partly shown)
-- reply 74.9

* * *

molecular target: EGFR T790M L858R (Homo sapiens, UniProt P00533, L858R/T790M); assay: EGFR T790M L858R biochemical assay (Caliper mobility shift); conditions: 5 μM ATP; apparent Ki (Morrison fit) converted by Cheng-Prusoff, Km of ATP 1.3 μM
value_kind: Ki (nM)
# value in nM; strip the unit string

-- ask Please look at this molecule and report its Ki: CCC(C)n1nc(N2CC(F)(F)C2)c2cnc(Nc3ccnc(N4CCC(C)(O)CC4)n3)cc21 (stereo not shown) [Example 146]
-- reply 2.5

-- ask Kindly indicate its recorded Ki. Item: CC(C)n1nc(N2CC(C(=O)N3CCOCC3)C2)c2cnc(Nc3ccnc(-c4cnn(S(=O)(=O)C5CC5)c4)n3)cc21 [Example 163]
-- reply 0.9

-- ask Identify Ki associated with the molecule CC[C@@H](C)n1nc(N2CC3(COC3)C2)c2cnc(Nc3ccnc(N4CC[C@](C)(O)[C@H](F)C4)n3)cc21 (single isomer, unassigned) [Example 67]
-- reply 3.9

-- ask Supply Ki value. Item: CC(C)n1nc(N2CC3(CC(O)C3)C2)c2cnc(Nc3ccnc(N4CC[C@H](O)[C@H](F)C4)n3)cc21 (racemic) [Example 175]
-- reply 1.4

-- ask Retrieve Ki measured for CC(C)n1nc(N2CC(C(C)(C)O)C2)c2cnc(Nc3ccnc(-c4cnn(S(=O)(=O)C5CC5)c4)n3)cc21 [Example 149] and print it.
-- reply 2.1

-- ask Determine its reported Ki: CC(C)n1nc(N2CCOC(CO)C2)c2cnc(Nc3ccnc(-c4cnn(S(=O)(=O)C5CC5)c4)n3)cc21 (stereo not shown) [Example 53]
-- reply 1.2

-- ask Give recorded Ki. CCC(C)n1nc(N2CC[C@H](O)C2=O)c2cnc(Nc3ccnc(N4CC[C@@H](O)[C@@H](F)C4)n3)cc21 (stereo partly shown) [Example 201]
-- reply 5.8

-- ask Give a short answer stating reported Ki for CC(C)n1nc(NCC(N)=O)c2cnc(Nc3ccnc(-c4cnn(S(=O)(=O)C5CC5)c4)n3)cc21 [Example 48] .
-- reply 0.6

-- ask For CCS(=O)(=O)n1cc(-c2nccc(Nc3cc4c(cn3)c(N3CC(CO)C3)nn4C(C)C)n2)cn1 [Example 36] , write its Ki.
-- reply 0.7

-- ask For the molecule CC1CN(c2nn(C(C)C)c3cc(Nc4ccnc(-c5cnn(S(=O)(=O)C6CC6)c5)n4)ncc23)C(=O)N1 (stereo not shown) [Example 108] , report Ki.
-- reply 1.9

-- ask Consider the molecule CC[C@H](C)n1nc(N2CC[C@@H](O)C2)c2cnc(Nc3ccnc(N4CC[C@](C)(O)[C@H](F)C4)n3)cc21 (relative stereo) [Example 69] . State its measured Ki.
-- reply 1.7

-- ask Specify reported Ki for the molecule shown: CCC(C)n1nc(N2CC(C(C)(C)O)C2)c2cnc(Nc3ccnc(N4CC[C@@H](O)[C@@H](F)C4)n3)cc21 (single isomer, unassigned) [Example 193]
-- reply 1.8

-- ask Tell me its Ki given CC(C)n1nc(C2(C)CCCO2)c2cnc(Nc3ccnc(N4CCC(C)(O)CC4)n3)cc21 (stereo not shown) [Example 94] as the entry.
-- reply 872

* * *

biological target: phosphor-EGFR in H1975(L585R/T790M) mutant EGFR expressing cells (Homo sapiens, UniProt P00533, L858R/T790M); assay: H1975 pEGFR MSD cellular assay; conditions: NCI-H1975 cells, serum starved, 1 hour compound incubation, pEGFR Tyr1068 MSD; read-out: HI975 pEGFR EC50
value_kind: pEC50
For clarity, pEC50 is expressed as the negative log10 of concentration in mol/L.

-- ask State, in one line, measured pEC50 of CNC(=O)C1CN(c2nn(C(C)C)c3cc(Nc4ccnc(-c5cnn(S(=O)(=O)C6CC6)c5)n4)ncc23)C1 [Example 161]
-- reply 7.27

-- ask Consider the compound CC(C)n1nc(N2CC3(COC3)C2)c2cnc(Nc3ccnc(N4CCC(O)C(C)(C)C4)n3)cc21 (centres unmarked) [Example 3] and give its recorded pEC50.
-- reply 7.41

-- ask Specify measured pEC50 for CC(C)n1nc(N2CCC(O)C2)c2cnc(Nc3ccnc(N4CC[C@@H](O)[C@@H](F)C4)n3)cc21 (single isomer, unassigned) [Example 105] .
-- reply 6.89

-- ask Check the records and state pEC50 for CC(C)n1nc(NC2CCS(=O)(=O)C2)c2cnc(Nc3ccnc(-c4cnn(S(=O)(=O)C5CC5)c4)n3)cc21 (centres unmarked) [Example 107]
-- reply 6.41

-- ask Consider the compound CC(C)n1nc(NCC(N)=O)c2cnc(Nc3ccnc(-c4cnn(S(=O)(=O)C5CC5)c4)n3)cc21 [Example 48] and give its recorded pEC50.
-- reply 5.83

-- ask Return value of pEC50 for input CC(C)n1nc(NCC(C)(C)O)c2cnc(Nc3ccnc(-c4cnn(S(=O)(=O)C5CC5)c4)n3)cc21 [Example 61] , no commentary.
-- reply 7.16

-- ask For the compound CC(C)n1nc(N2C[C@@H](O)[C@H](F)C2)c2cnc(Nc3ccnc(N4CC[C@H](O)[C@H](F)C4)n3)cc21 (relative stereo) [Example 131] , report pEC50.
-- reply 6.89

-- ask Using known records, supply pEC50 for CC(C)n1nc(N2CC[C@H](CO)C2)c2cnc(Nc3ccnc(-c4cnn(S(=O)(=O)C5CC5)c4)n3)cc21 [Example 58]
-- reply 8.03

-- ask Supply pEC50 value. Item: CC(C)n1nc(N2CC3(COC3)C2)c2cnc(Nc3ccnc(-c4cnn(S(=O)(=O)C5CC5)c4)n3)cc21 [Example 5]
-- reply 7.53

-- ask Give reported pEC50 value for CCS(=O)(=O)n1cc(-c2nccc(Nc3cc4c(cn3)c(N3CC(C(=O)N(C)C)C3)nn4C(C)C)n2)cn1 [Example 17]
-- reply 7.72

-- ask Recall and state the measured pEC50 for CC(C)n1nc(N2CC3(CC(O)C3)C2)c2cnc(Nc3ccnc(N4CC[C@H](O)[C@H](F)C4)n3)cc21 (racemic) [Example 175] .
-- reply 7.01

-- ask Give pEC50 for CC(C)n1nc(NC2COC2)c2cnc(Nc3ccnc(-c4cnn(S(=O)(=O)C5CC5)c4)n3)cc21 [Example 35]
-- reply 7.47

-- ask Supply reported pEC50 belonging to this compound: CC(C)n1nc(C2CCOC2)c2cnc(Nc3ccnc(-c4cnn(S(=O)(=O)C5CC5)c4)n3)cc21 (centres unmarked) [Example 19]
-- reply 6.14

-- ask Please indicate pEC50 recorded for CC(C)n1nc(N2CC(C(=O)NCC(F)(F)F)C2)c2cnc(Nc3ccnc(-c4cnn(S(=O)(=O)C5CC5)c4)n3)cc21 [Example 165]
-- reply 7.02
